These measurements were taken from PubChem BioAssay AID602413.

- assay-target: Mas-related G-protein coupled receptor member X1 (Homo sapiens)
- assay-summary: allosteric enhancers of human MrgX1 signaling – HEK293 cells, Fluo-4 calcium flux, confirmation (AID 602413);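 also: compound followed by low BAM8-22 agonist challenge near EC20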
- measurement-parameters: MrgX1-HEK293, Fluo-4 calcium fluorescence, FDSS, at 10 µM
The whole screen tested about 1,200 compounds, of which about 150 (12%) were called active.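 The calls were made as follows: active = ratio at least 3 SD above the weak peptide control, stable starting fluorescence, no direct agonism earlier; inactive = the rest.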 Not all results are given here.
Please reply with one of these outcomes: active, inactive

Below, 3 compounds whose answers are already recorded.
compound	label-value
COc1ccc(Nc2nnc(C)c3ccccc23)cc1	inactive
Cc1ccc2c(c1)c1ncnc(N3CCc4ccccc4C3)c1n2C	inactive
CN1/C(=C\C=C2\N=C(c3ccc(F)cc3)OC2=O)C(C)(C)c2ccccc21	inactive

Outcome? COc1ccc(Cc2nc(-c3ccccn3)no2)cc1OC inactive

Outcome? O=C(Nc1nc2c(F)cc(F)cc2s1)C1COc2ccccc2O1 (stereo unspecified) inactive

Outcome? COc1ccc(-c2cc(C(F)(F)F)nc(S(C)(=O)=O)n2)cc1OC inactive

Outcome? O=C(Nc1ccccc1N1CCOCC1)c1csc2c1CCCC2 inactive

Outcome? O=C(COC(=O)c1ccc(NS(=O)(=O)c2cccs2)cc1O)Nc1ccc(F)cc1 inactive

Outcome? NC(=O)c1c(Nc2nc3c(F)cccc3s2)sc2c1CCCC2 active

Outcome? Cc1c(C(=O)N2CCCc3ccccc32)sc2nc(-c3ccccc3)cn12 inactive

Outcome? COc1cccc(-c2cnc(OC(C)(C)C)nc2OC(C)(C)C)c1 inactive

====

- assay-target: Mas-related G-protein coupled receptor member X1 (Homo sapiens) (UniProt Q96LB2)
- Sequence (Q96LB2 whole entry, looked up): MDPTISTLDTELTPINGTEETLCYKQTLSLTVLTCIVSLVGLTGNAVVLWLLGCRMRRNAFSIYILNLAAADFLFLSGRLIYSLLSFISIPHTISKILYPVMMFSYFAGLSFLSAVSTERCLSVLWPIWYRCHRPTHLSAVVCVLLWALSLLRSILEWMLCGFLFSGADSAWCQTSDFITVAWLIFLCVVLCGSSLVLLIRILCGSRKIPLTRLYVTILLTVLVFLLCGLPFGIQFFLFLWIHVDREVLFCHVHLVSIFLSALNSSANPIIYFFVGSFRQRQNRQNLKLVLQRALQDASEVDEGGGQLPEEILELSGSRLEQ
- assay-summary: allosteric enhancers of human MrgX1 signaling – HEK293 cells, Fluo-4 calcium flux, confirmation (AID 602413);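 also: compound followed by low BAM8-22 agonist challenge near EC20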
- measurement-parameters: MrgX1-HEK293, Fluo-4 calcium fluorescence, FDSS, at 10 µM
Among all 1,200 compounds or so, about 150 (12%) were called active.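 How the source made its calls: active means ratio at least 3 SD above the weak peptide control, stable starting fluorescence, no direct agonism earlier; inactive means the rest.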 The list is a sample of the results.
Please reply with one of these outcomes: active, inactive

Below, 8 molecules whose answers are already recorded.
molecule	label-value
Cc1ccc(-n2cnc3ncnc(-c4ccccc4)c32)cc1	inactive
CC(C)CC(=O)N/C(N)=N/c1nc2ccccc2s1	inactive
COC(=O)Cn1c(O)c(N=NC(=O)OC)c2ccccc21	inactive
Fc1cccc(Cl)c1COc1ccc(-c2nnco2)cc1	inactive
COC(=O)Cc1cc(=O)n(-c2nc3ccccc3s2)[nH]1	inactive
CCC(C)Sc1nc(C)nc2c1c(=O)n(C)c(=O)n2C (configuration not stated)	inactive
CC(C)CNc1ncnc2c1cnn2Cc1ccc(Cl)cc1	inactive
Cc1nc2ccccc2cc1OCc1ccc(F)cc1	inactive

Outcome? Cc1ccc(OC(=O)c2cc3ccccc3o2)cc1 inactive

Outcome? COc1cc(C(F)(F)F)nc2c(Br)c(C(C)(C)C)nn12 inactive

Outcome? Cc1ccc(N/C(N)=N/c2nc(C(F)(F)F)cc(C(F)(F)F)n2)cc1 inactive

Outcome? CC1(C)CC2CC(C)(CN2c2ncnc3ccc(Br)cc23)C1 (configuration not stated) active
